- tgt: F protein of hMPV B virus (human metapneumovirus subtype B)
- protocolNotes: cell-based or functional assay
Recorded measurements of PRNT IC50, one per entry
Your answer should be a plain number; it is taken to be in µg/mL.

Some binders with recorded PRNT IC50:
[
  {
    "binder": "M2D2 (antibody, V domains shown, IgG) VH: QVQLVQSGAEVKKPGASVKVSCKASGYNFDNYYMSWVRQAPGQGLEWLGIIDPSGGRISYAPKFQGRVTLTRDTSTSTVYMELRGLRFEDTALYYCARLEATHEGPWGQGTLVTVSS VL: QSVLTQPPSASGTPGQRVTISCSGSNSNIGSSTVNWYQQLPGTAPKLLIYSDNHRPSGVPDRFSGSRSGTSASLVISGLHSEDEADYYCGTWDDGLNGPYVFGTGTKVTVL",
    "testValue": 0.0584
  },
  {
    "binder": "M4B06 (antibody, V domains shown) VH: EVQLLESGGGFVQPGGSLRLSCVVTGFTFSNYAMCWVRQAPGKGPEWVSGIGGSVGTTYYADSVKGRFTISRDNSKNTLYLQMSGLRAEDTARYYCAKVPSFFVFEDGFDMWGQGTVVTVSS VL: QSVLTQPPSASGNPGQRVTISCYGSGSNIGNNYVHWFRQLPGTAPRLLIYNTDILVPGVPDRFSGSESGTSASLAISGLQSGDEADYFCAAWDDTLNGYVFGPGTTVTVL",
    "testValue": 0.0022
  }
]

Now for a further binder.
Please give the measured PRNT IC50 for this binder: M2B6 (antibody, V domains shown) VH: QVQLQESGPGLVKPSETLSLTCSVSGASIGGYYWGWIRQPPGKGLEWLGYIYYSGRTVYSPSLRGRLALSLDMSRQQLSLRLRSVAAADTAVYYCASLTITPGWFDSWGPGTLVTVSS VL: QSVLTQPPSVSGAPGQRVTISCTGSSSNIGAGYDVHWYQQFPGSAPKLLIYGNTKRPSGVPDRFSGSTSGSSASLAITGLQTEDEAEYYCQSYERNLDGALFGGGTKLSVL 0.0237

The measurements presented in this section are drawn from patent US20240327502A1.
